Target: Tyrosine-protein phosphatase non-receptor type 7 (Homo sapiens)
Sequence (P35236 whole entry): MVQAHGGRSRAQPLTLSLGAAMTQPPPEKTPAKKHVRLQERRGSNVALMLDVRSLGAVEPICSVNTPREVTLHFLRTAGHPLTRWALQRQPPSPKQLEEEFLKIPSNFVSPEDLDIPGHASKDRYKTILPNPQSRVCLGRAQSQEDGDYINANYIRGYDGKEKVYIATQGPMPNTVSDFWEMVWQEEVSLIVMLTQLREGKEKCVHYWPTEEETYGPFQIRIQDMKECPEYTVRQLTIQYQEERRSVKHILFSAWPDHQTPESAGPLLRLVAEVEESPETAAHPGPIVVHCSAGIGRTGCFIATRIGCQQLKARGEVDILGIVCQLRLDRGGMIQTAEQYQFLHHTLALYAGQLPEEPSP
observable: IC50

Lookup: Give IC50 for the following compound: Cc1c(Br)cc(NC(=O)NS(=O)(=O)O)cc1Br
Found: > 10 µM

====

Target: Tyrosine-protein phosphatase non-receptor type 1 (Homo sapiens, UniProt P18031)
Sequence (P18031 whole entry): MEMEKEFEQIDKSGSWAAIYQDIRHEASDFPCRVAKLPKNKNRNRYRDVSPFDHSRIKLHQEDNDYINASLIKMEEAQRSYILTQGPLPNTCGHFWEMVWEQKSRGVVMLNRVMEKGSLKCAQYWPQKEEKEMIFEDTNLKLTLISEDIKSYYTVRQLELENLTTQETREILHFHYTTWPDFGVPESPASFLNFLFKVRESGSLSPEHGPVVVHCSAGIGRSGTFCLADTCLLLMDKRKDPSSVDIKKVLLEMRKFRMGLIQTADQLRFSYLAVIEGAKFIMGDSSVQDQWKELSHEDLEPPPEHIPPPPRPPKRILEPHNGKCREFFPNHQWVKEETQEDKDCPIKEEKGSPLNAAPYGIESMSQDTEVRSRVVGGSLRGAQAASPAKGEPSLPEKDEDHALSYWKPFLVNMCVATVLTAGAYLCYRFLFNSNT
observable: IC50

Lookup: Give IC50 for the following compound: Cc1c(Br)cc(NC(=O)NS(=O)(=O)O)cc1Br
Found: > 10 µM

====

Could you please report measured fCmax for the items listed next?
Assay: Unbound Cmax in plasma of Sprague-Dawley rat at 30 mg/kg, po measured after 24 hrs by LC-MS/MS analysis
Format: ADME, organism-based
Settings: in vivo
# unit: nM | format: bare number

Lookup: Give fCmax for the following compound: Cc1c(Br)cc(NC(=O)NS(=O)(=O)O)cc1Br
Found: 158

Lookup: Give fCmax for the following compound: O=C(CS(=O)(=O)O)Nc1ccc(N2CCOCC2)c(Br)c1
Found: 43

====

Assay: AUC(0 to 8 hrs) in CD-1 mouse plasma at 2 mg/kg, iv measured after 8 hrs by LC-MS/MS analysis
Type: ADME, organism-based
Parameters: dose 2 mg/kg, time 8 hrs, route iv
Conditions: in vivo
observable: AUC (µM·h)
# unit: µM·h | format: bare number

Lookup: Give AUC for the following compound: Cc1c(Br)cc(NC(=O)C(c2ccccc2)S(=O)(=O)O)cc1Br (centres undefined)
Found: 2.09

Lookup: Give AUC for the following compound: O=C(CS(=O)(=O)O)Nc1ccc(N2CCOCC2)c(Br)c1
Found: 1.72

Lookup: Give AUC for the following compound: Cc1c(Br)cc(NC(=O)NS(=O)(=O)O)cc1Br
Found: 15.1

Lookup: Give AUC for the following compound: Cc1c(Br)cc(NC(=O)CS(=O)(=O)O)cc1Br
Found: 4.1

====

Could you please report measured log10 of solubility for the items listed next?
Experiment: Aqueous solubility of compound at pH 6 by HPLC analysis
Type: physicochemical
Conditions: buffer
Parameter value (number): base-10 log of solubility in µg/mL.

Lookup: Give log10 of solubility for the following compound: O=C(CS(=O)(=O)O)Nc1ccc(N2CCOCC2)c(Br)c1
Found: 2.88

Lookup: Give log10 of solubility for the following compound: Cc1c(Br)cc(NC(=O)CS(=O)(=O)O)cc1Br
Found: 2.87

Lookup: Give log10 of solubility for the following compound: O=C(CS(=O)(=O)O)Nc1nc2ccc([N+](=O)[O-])cc2s1
Found: 2.77

Lookup: Give log10 of solubility for the following compound: O=C(CS(=O)(=O)O)Nc1nc2ccccc2s1
Found: 2.72

Lookup: Give log10 of solubility for the following compound: O=C(Nc1nc2ccccc2s1)C(c1ccccc1)S(=O)(=O)O (configuration not stated)
Found: 2.82

Lookup: Give log10 of solubility for the following compound: Cc1c(Br)cc(NC(=O)NS(=O)(=O)O)cc1Br
Found: 0.98

Lookup: Give log10 of solubility for the following compound: Cc1c(Br)cc(NC(=O)C(c2ccccc2)S(=O)(=O)O)cc1Br (configuration not stated)
Found: 2.96

====

Experiment: Plasma protein binding in mouse assessed as unbound fraction measured after 4.5 hrs by LC-MS/MS analysis
Format: ADME, cell-free
Threshold 0.07. Fu below it: satisfied. Fu at it or above: not satisfied.

Lookup: Problem: For the molecule O=C(CS(=O)(=O)O)Nc1ccc(N2CCOCC2)c(Br)c1 , is Fu under 0.07?
Found: not satisfied

Lookup: Problem: For the molecule O=C(CS(=O)(=O)O)Nc1nc2ccccc2s1 , is Fu under 0.07?
Found: not satisfied

Lookup: Problem: For the molecule Cc1c(Br)cc(NC(=O)CS(=O)(=O)O)cc1Br , is Fu under 0.07?
Found: satisfied

Lookup: Problem: For the molecule Cc1c(Br)cc(NC(=O)NS(=O)(=O)O)cc1Br , is Fu under 0.07?
Found: satisfied

Lookup: Problem: For the molecule O=C(CS(=O)(=O)O)Nc1nc2ccc([N+](=O)[O-])cc2s1 , is Fu under 0.07?
Found: satisfied

Lookup: Problem: For the molecule O=C(Nc1nc2ccccc2s1)C(c1ccccc1)S(=O)(=O)O (stereo not drawn) , is Fu under 0.07?
Found: satisfied

Lookup: Problem: For the molecule Cc1c(Br)cc(NC(=O)C(c2ccccc2)S(=O)(=O)O)cc1Br (stereo not drawn) , is Fu under 0.07?
Found: satisfied

====

Biological target: Serine/threonine-protein phosphatase 5 (Homo sapiens)
Sequence (P53041 whole entry): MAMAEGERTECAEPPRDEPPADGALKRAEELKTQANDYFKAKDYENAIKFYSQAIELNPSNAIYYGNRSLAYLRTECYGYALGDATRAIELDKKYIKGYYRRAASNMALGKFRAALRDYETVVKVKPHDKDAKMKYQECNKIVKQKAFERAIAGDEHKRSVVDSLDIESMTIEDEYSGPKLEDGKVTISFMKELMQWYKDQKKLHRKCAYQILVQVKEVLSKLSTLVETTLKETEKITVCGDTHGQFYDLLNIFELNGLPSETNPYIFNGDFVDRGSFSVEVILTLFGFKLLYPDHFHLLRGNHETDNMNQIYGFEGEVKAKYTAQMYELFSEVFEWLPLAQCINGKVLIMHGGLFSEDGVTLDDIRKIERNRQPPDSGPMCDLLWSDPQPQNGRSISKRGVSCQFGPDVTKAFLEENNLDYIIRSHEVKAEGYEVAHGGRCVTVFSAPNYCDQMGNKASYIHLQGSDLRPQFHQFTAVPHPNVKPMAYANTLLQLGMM
pIC50: −log10 of the molar value.
observable: pIC50

Lookup: Give pIC50 for the following compound: Cc1c(Br)cc(NC(=O)NS(=O)(=O)O)cc1Br
Found: < 5.00

====

Could you please report measured Cmax for the items listed next?
Test: Cmax in CD-1 mouse plasma at 2 mg/kg, iv measured after 8 hrs by LC-MS/MS analysis
Type: ADME, organism-based
Set-up: time 8 hrs, dose 2 mg/kg, route iv
# unit: µM | format: bare number

Lookup: Give Cmax for the following compound: Cc1c(Br)cc(NC(=O)C(c2ccccc2)S(=O)(=O)O)cc1Br (centres undefined)
Found: 4.94

Lookup: Give Cmax for the following compound: Cc1c(Br)cc(NC(=O)CS(=O)(=O)O)cc1Br
Found: 2

Lookup: Give Cmax for the following compound: O=C(CS(=O)(=O)O)Nc1ccc(N2CCOCC2)c(Br)c1
Found: 8.09

Lookup: Give Cmax for the following compound: Cc1c(Br)cc(NC(=O)NS(=O)(=O)O)cc1Br
Found: 13.4

====

Experiment: Metabolic stability in human hepatic microsome at 4 uM measured after 30 mins by LC-MS analysis
Type: ADME
Details: liver microsomes, read-out: Stability
Threshold 20%. remaining at 0.5 h, 4 µM below it: MET. remaining at 0.5 h, 4 µM at it or above: NOT MET.

Lookup: Problem: For the compound Cc1c(Br)cc(NC(=O)CS(=O)(=O)O)cc1Br , is remaining at 0.5 h, 4 µM under 20%?
Found: MET

Lookup: Problem: For the compound N.O=C(Nc1nc2ccccc2s1)NS(=O)(=O)O , is remaining at 0.5 h, 4 µM under 20%?
Found: MET

Lookup: Problem: For the compound O=C(CS(=O)(=O)O)Nc1nc2ccccc2s1 , is remaining at 0.5 h, 4 µM under 20%?
Found: MET

Lookup: Problem: For the compound O=C(CS(=O)(=O)O)Nc1nc2ccc([N+](=O)[O-])cc2s1 , is remaining at 0.5 h, 4 µM under 20%?
Found: NOT MET

Lookup: Problem: For the compound Cc1c(Br)cc(NC(=O)NS(=O)(=O)O)cc1Br , is remaining at 0.5 h, 4 µM under 20%?
Found: NOT MET

Lookup: Problem: For the compound O=C(Nc1nc2ccccc2s1)C(c1ccccc1)S(=O)(=O)O (stereo not drawn) , is remaining at 0.5 h, 4 µM under 20%?
Found: NOT MET

Lookup: Problem: For the compound O=C(CS(=O)(=O)O)Nc1ccc(N2CCOCC2)c(Br)c1 , is remaining at 0.5 h, 4 µM under 20%?
Found: MET

Lookup: Problem: For the compound Cc1c(Br)cc(NC(=O)C(c2ccccc2)S(=O)(=O)O)cc1Br (stereo not drawn) , is remaining at 0.5 h, 4 µM under 20%?
Found: NOT MET
